Overview of recorded pIC50 for various molecules
measurement_target: 5-hydroxytryptamine receptor 2A (Homo sapiens, UniProt P28223)
Sequence (P28223 whole entry): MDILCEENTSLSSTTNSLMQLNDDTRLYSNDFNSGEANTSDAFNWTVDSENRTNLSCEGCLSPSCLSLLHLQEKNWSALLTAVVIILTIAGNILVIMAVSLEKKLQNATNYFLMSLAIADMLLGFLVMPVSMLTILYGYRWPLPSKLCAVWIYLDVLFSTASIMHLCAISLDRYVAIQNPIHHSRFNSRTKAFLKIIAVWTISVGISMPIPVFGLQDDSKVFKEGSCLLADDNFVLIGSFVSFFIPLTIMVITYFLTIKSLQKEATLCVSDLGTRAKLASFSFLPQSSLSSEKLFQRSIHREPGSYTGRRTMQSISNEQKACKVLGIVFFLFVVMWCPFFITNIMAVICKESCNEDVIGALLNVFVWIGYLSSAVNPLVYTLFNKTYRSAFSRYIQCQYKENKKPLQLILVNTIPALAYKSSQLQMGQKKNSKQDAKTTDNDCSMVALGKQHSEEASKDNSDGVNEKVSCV
experimental_protocol: Antagonist activity at human recombinant 5-HT2A receptor expressed in CHOK1 cells assessed as inhibition of serotonin-induced calcium release preincubated for 15 mins followed by 5-HT addition measured every 1.7 secs for 60 secs by calcium 4 dye-based FLIPR assay
pIC50: −log10 of the molar value.
measurement_type: pIC50

- compound_structure: "COc1c(OCCOCCOCCOCCOCCOc2cccc(C(=O)C3CCN(CCc4ccc(F)cc4)CC3)c2OC)cccc1C(=O)C1CCN(CCc2ccc(F)cc2)CC1"
  measurement_type: "pIC50"
  experimental_value: 7.53
- compound_structure: "COc1c(OCCOCCOc2cn(CCOCCOc3cccc([C@H](O)C4CCN(CCc5ccc(F)cc5)CC4)c3OC)nn2)cccc1[C@H](O)C1CCN(CCc2ccc(F)cc2)CC1"
  measurement_type: "pIC50"
  experimental_value: 7.44
- compound_structure: "COc1c(OCCOCCN=[N+]=[N-])cccc1[C@H](O)C1CCN(CCc2ccc(F)cc2)CC1"
  measurement_type: "pIC50"
  experimental_value: 7.33
- compound_structure: "COc1c(OCCOCCOCCOCCOCCOCCOc2cccc(C(=O)C3CCN(CCc4ccc(F)cc4)CC3)c2OC)cccc1C(=O)C1CCN(CCc2ccc(F)cc2)CC1"
  measurement_type: "pIC50"
  experimental_value: 7.40
- compound_structure: "C#CCOCCOCCOc1cccc([C@H](O)C2CCN(CCc3ccc(F)cc3)CC2)c1OC"
  measurement_type: "pIC50"
  experimental_value: 7.25
